Quick reference: pEC50 of the listed items.
test.target: OR5B12 (Homo sapiens, UniProt Q96R08)
Construct: expressed in transfected cells; host or cells: HEK293T cells stably expressing human RTP1S (V227I) and RTP2 (L220R)
Sequence (Q96R08 with tags, fused parts or gaps): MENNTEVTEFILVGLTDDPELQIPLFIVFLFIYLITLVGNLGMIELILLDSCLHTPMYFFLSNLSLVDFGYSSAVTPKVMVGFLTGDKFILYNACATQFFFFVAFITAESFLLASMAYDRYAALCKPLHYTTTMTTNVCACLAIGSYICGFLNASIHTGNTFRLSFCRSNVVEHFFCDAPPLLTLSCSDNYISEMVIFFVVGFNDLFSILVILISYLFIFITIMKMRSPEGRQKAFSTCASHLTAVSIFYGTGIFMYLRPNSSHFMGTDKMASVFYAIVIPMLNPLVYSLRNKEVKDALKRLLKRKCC
procedure.text: cell-based
Format: cell-based
assay.context: changed C-term SEQ ID NO: 86; read-out: Potency EC50
Source text: To create an expression plasmid, an OR coding sequence fused at the end of TM7 to the desired C-terminus sequence was synthesized by a DNA synthesis service provider (BioCat GmbH, Germany) and inserted into pcDNA3.1(+) (Invitrogen, MA, USA) downstream of the CMV promoter sequence (SEQ ID NO: 82) using BamHI and Notl restriction sites. […]
pEC50 (log units): -log10 of the concentration in mol/L.

CCCCCC1C(=O)CCC1CC(=O)OC (centres unmarked) [Hedione] :: 4.23

Query string: I have this molecule here, CCCCCC1C(=O)CCC1CC(=O)OC (centres unmarked) [Hedione HC] , and I need its recorded pEC50.
Result string: 4.74

* * *

test.target: OR5A2 (Homo sapiens, UniProt Q8NGI9)
Construct: expressed in transfected cells; host or cells: HEK293T cells with stably integrated human RTP1S (V227I) and RTP2 (L220R)
Sequence (Q8NGI9 1-324): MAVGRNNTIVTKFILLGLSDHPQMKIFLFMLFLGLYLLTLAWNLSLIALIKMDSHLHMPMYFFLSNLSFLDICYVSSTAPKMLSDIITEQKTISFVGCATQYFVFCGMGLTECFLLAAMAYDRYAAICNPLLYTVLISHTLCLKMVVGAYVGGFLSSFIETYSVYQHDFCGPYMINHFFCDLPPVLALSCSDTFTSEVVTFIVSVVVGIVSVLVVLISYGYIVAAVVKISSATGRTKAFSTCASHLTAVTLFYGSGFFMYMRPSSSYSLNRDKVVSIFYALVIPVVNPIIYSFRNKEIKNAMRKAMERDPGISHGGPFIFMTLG
procedure.text: Luciferase dose-response, wild-type vs changed C-terminus (SEQ ID NO: 86)
Type: cell-based
assay.context: Potency EC50, wild-type
pEC50: −log10 of the molar value.
observable: pEC50

Query string: I have this compound here, CC1COCc2cc3c(cc21)C(C)(C)C(C)C3(C)C (stereo not shown) [Galaxolide] , and I need its recorded pEC50.
Result string: < 4.51

* * *

test.target: OR10A3 (Homo sapiens)
Construct: expressed in transfected cells; host or cells: HEK293T stably expressing human RTP1S(V227I) and RTP2(L220R) (general method)
Sequence (P58181 with tags, fused parts or gaps): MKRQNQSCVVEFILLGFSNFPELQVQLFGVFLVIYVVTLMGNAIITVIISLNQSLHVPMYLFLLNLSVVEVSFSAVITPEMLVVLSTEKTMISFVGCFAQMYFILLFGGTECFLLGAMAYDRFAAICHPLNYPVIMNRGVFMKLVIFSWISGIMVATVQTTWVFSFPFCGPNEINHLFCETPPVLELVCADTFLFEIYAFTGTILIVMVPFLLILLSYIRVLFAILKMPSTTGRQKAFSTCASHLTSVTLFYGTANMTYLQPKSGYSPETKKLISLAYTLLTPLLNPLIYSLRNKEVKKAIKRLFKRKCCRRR
procedure.text: Luciferase assay with odorant mixtures/single ingredients, OR with SEQ ID NO: 221
Type: cell-based
Classification field: enter Satisfied for EC10 (concentration for 10-fold OR activation) values not below 2 µM, Not satisfied for values below it.

CCCCCCCC1CCC(=O)O1 (stereo not drawn) :: Not satisfied
CCCCCC1CCCC(=O)O1 (stereo not drawn) :: Satisfied
CCCCCCCCC1CCC(=O)O1 (stereo not drawn) :: Not satisfied

Now consider the entry below.
Query string: Assess whether reported EC10 (concentration for 10-fold OR activation) for CCCCCCCC1CCCC(=O)O1 (stereo not drawn) sits at 2 µM or higher.
Result string: Satisfied

* * *

test.target: OR2AP1 (Homo sapiens)
Construct: expressed in transfected cells; host or cells: HEK293T stably expressing human RTP1S(V227I) and RTP2(L220R) (general method)
Sequence (Q8NGE2 with tags, fused parts or gaps): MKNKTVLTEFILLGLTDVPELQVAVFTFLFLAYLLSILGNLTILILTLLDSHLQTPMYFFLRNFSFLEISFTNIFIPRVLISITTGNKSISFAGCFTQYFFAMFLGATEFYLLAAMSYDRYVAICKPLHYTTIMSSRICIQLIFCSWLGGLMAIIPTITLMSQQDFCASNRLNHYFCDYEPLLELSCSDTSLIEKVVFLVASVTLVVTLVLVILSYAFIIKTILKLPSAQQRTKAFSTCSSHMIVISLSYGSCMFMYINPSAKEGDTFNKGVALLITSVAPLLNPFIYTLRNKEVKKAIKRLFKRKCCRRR
procedure.text: Luciferase assay with odorant mixtures/single ingredients, OR with SEQ ID NO: 221
Format: cell-based
Hi! Just check whether EC2 (concentration for 2-fold luciferase induction) is below 20 µM. Below gives Yes, equal or above gives No.

Answered examples (3):
CCCCCCCC1CCCC(=O)O1 (stereo not drawn) :: Yes
CCCCCCCC1CCC(=O)O1 (stereo not drawn) :: Yes
CCCCCCCCC1CCC(=O)O1 (stereo not drawn) :: Yes

Query string: Quick check: does CCCCCCC1CCC(=O)O1 (stereo not drawn) have EC2 (concentration for 2-fold luciferase induction) under 20 µM?
Result string: No
